Test system: Mus musculus
Experiment: Analgesic activity in ICR mouse assessed as pain threshold variation at 25 umol/kg, po administered as single dose measured after 150 mins by tail flick test relative to control
Type: functional
quantity: Activity

Observe how each entry below is paired with its result.
>  <compound>
O=C(CN(c1nc(Cl)nc2[nH]cnc12)C1CC1)N[C@@H](Cc1cnc[nH]1)C(=O)OCc1ccccc1

>  <Activity>
5.05%

$$$$
>  <compound>
O=C(CN(c1ncnc2c1ncn2C1CCCCO1)C1CC1)N[C@@H](Cc1ccc(O)cc1)C(=O)OCc1ccccc1 (stereo partly specified)

>  <Activity>
8.71%

$$$$
>  <compound>
O=C(CN(c1ncnc2c1ncn2C1CCCCO1)C1CC1)N[C@@H](CCC(=O)OCc1ccccc1)C(=O)OCc1ccccc1 (stereo partly specified)

>  <Activity>
14.14%

$$$$
>  <compound>
O=C(CN(c1nc(Cl)nc2[nH]cnc12)C1CC1)N[C@@H](Cc1c[nH]c2ccccc12)C(=O)O

>  <Activity>
5.27%

$$$$
>  <compound>
NC(=O)CC[C@H](NC(=O)CN(c1ncnc2c1ncn2C1CCCCO1)C1CC1)C(=O)OCc1ccccc1 (stereo partly specified)

>  <Activity>
10.72%

$$$$

Q) Return reported Activity for target or system Mus musculus, item O=C(CN(c1nc(Cl)nc2[nH]cnc12)C1CC1)N[C@@H](Cc1cnc[nH]1)C(=O)O .
A) 4.42%

* * *

Test system: Mus musculus
Test: Analgesic activity in ICR mouse assessed as pain threshold variation at 25 umol/kg, po administered as single dose measured after 120 mins by tail flick test relative to control
Format: functional
Lab note: anything with Activity below 20% is marked True; values at 20% or higher are marked False.

A selection of reference data follows.
>  <compound>
O=C(CN(c1nc(Cl)nc2[nH]cnc12)C1CC1)NCC(=O)OCc1ccccc1

>  <target_or_test_system>
Mus musculus

>  <class>
False

$$$$
>  <compound>
O=C(CN(c1nc(Cl)nc2[nH]cnc12)C1CC1)N[C@@H](CO)C(=O)O

>  <target_or_test_system>
Mus musculus

>  <class>
False

$$$$
>  <compound>
O=C(CN(c1ncnc2c1ncn2C1CCCCO1)C1CC1)N[C@@H](Cc1ccccc1)C(=O)OCc1ccccc1 (stereo partly drawn)

>  <target_or_test_system>
Mus musculus

>  <class>
False

$$$$
>  <compound>
CC[C@H](C)[C@H](NC(=O)CN(c1nc(Cl)nc2[nH]cnc12)C1CC1)C(=O)OCc1ccccc1

>  <target_or_test_system>
Mus musculus

>  <class>
False

$$$$
>  <compound>
NC(=O)C[C@H](NC(=O)CN(c1nc(Cl)nc2[nH]cnc12)C1CC1)C(=O)OCc1ccccc1

>  <target_or_test_system>
Mus musculus

>  <class>
True

$$$$

Q) Take the compound C[C@@H](O)[C@H](NC(=O)CN(c1ncnc2c1ncn2C1CCCCO1)C1CC1)C(=O)OCc1ccccc1 (stereo partly drawn) and say whether its Activity is less than 20%.
A) True

Q) Take the compound O=C(CN(c1nc(Cl)nc2[nH]cnc12)C1CC1)N[C@@H](Cc1c[nH]c2ccccc12)C(=O)O and say whether its Activity is less than 20%.
A) True

Q) Take the compound N=C(N)NCCC[C@H](NC(=O)CN(c1ncnc2c1ncn2C1CCCCO1)C1CC1)C(=O)OCc1ccccc1 (stereo partly drawn) and say whether its Activity is less than 20%.
A) False

Source: ChEMBL document CHEMBL1152546
